B1: Neutrophil cytosol factor 2, residues 456 to 514; numbered along this chain, P19878 (parent)
chain: LKKGSQVEALFSYEATQPEDLEFQEGDIILVLSKVNEEWLEGECKGKVGIFPKVFVEDC

Variants of: B1
Experiment: abundance fitness (aPCA) (normalised: wild type 0, dead -1); higher = more abundant; growth selection in yeast, the domain comes from the species named
Details: Homo sapiens
Experimental endpoint: abundance fitness
Kindly provide the number alone.

abundance fitness for LKKGSQVEALFSYEATQPEDLEFQEGDIILVLSKVNEEWLEGECKGKVGIFPKVFVEYC [D58Y] ?
-0.595

Return reported abundance fitness; argument: LKKGSQVEALFSYEATQPEDLEFQEGDIILVLSKVNEEWLEGECKMKVGIFPKVFVEDC [G46M]
-0.599

Quick one: abundance fitness for LKKGSQVEALFSYEATQPEDLEFQEGDIILVLSKVNYEWLEGECKGKVGIFPKVFVEDC [E37Y] ?
-0.345

Would you kindly share the measured abundance fitness for LKKGSQVEALFSYEATQPEDLEFQEGDIILVLSKVNEEWLEGECKGKVGIFSKVFVEDC [P52S] ?
-0.585

Please report the recorded abundance fitness for LKKGSQVEALFSYEATQPEDLEFQEGDIILVLSKVNEEWLEGECKGKVGIFPKFFVEDC [V54F] .
-0.203

Which abundance fitness value is on record for LKKGSQVEALFSYENTQPEDLEFQEGDIILVLSKVNEEWLEGECKGKVGIFPKVFVEDC [A15N] ?
-0.853

# get_value(readout='abundance fitness', item= LKKGSQVEALFSYEATQPEDLEFQETDIILVLSKVNEEWLEGECKGKVGIFPKVFVEDC [G26T] )
-0.881

Fill blank: measured abundance fitness of the variant LKKGSQVEALFSYEATQPEDLEFQTGDIILVLSKVNEEWLEGECKGKVGIFPKVFVEDC [E25T] is ____.
0.035

Which abundance fitness value is on record for LKKGSQVEALFSYEATQPEDLEFQEGDIILVLSKVNEEWLEDECKGKVGIFPKVFVEDC [G42D] ?
-0.803

Which measured abundance fitness value corresponds to LKKGSQVEALFSYEATQPEDLEFQEGIIILVLSKVNEEWLEGECKGKVGIFPKVFVEDC [D27I] ?
-0.179

// query abundance fitness value for entry LKKGSQVEALFSYEATQPEDLEFQEGDIILVLSKVNEEWLEGECKGKVGIFFKVFVEDC [P52F]
-0.459

Given the entry LKKGSQDEALFSYEATQPEDLEFQEGDIILVLSKVNEEWLEGECKGKVGIFPKVFVEDC [V7D] , report its measured abundance fitness.
-0.907

Find the recorded abundance fitness belonging to LKKGSQVEALFSYEATQPEDLEFQEGDIILVLSKVNEEWLEGECKGTVGIFPKVFVEDC [K47T] and report it.
-0.284

What does the data say about its abundance fitness? Entry: LKKGSQVEALFSYEATQPEDLEFQEGDIILVLSKVNEEWLEGECKGKVIIFPKVFVEDC [G49I]
-0.427

Quick check: abundance fitness of LKKGSQVEALFSYEATQPEDLEFQEGDIILVDSKVNEEWLEGECKGKVGIFPKVFVEDC [L32D] ?
-0.054

Please look up its abundance fitness: LKKGSQVEALFSYEATQPEDLEFQEGDIILVLSKVNEEWLEGECKGKIGIFPKVFVEDC [V48I]
-0.138

Param item = LKKGSQVEALFSYGATQPEDLEFQEGDIILVLSKVNEEWLEGECKGKVGIFPKVFVEDC [E14G] ; retrieve measured abundance fitness.
-0.233

Find the recorded abundance fitness belonging to LKKGSQVEALFSYEATQPEDLEFQEGDIILVLSKVNEEWLEGECKGKVGIFPKVFTEDC [V56T] and report it.
-0.457

Which measured abundance fitness value corresponds to LKKGSQVEALFSYEATQPEDLEFQEGDIILVLSKVNEEWLEGECHGKVGIFPKVFVEDC [K45H] ?
0.232

I have this variant here, LKKGSQVEALFSYEATQPEDLEFQEGDIILVLSKVNEEWLELECKGKVGIFPKVFVEDC [G42L] , and I need its recorded abundance fitness.
-0.569

Looking for the measured abundance fitness of LKKGSQVEALFSYEATQPEDLEFQEGDIILVLSKVNEEWLEIECKGKVGIFPKVFVEDC [G42I] , can you help?
-0.473

Which abundance fitness is listed for LKKGSQVEALFSYEATQPEDLEFQEGDIILVLSKVNLEWLEGECKGKVGIFPKVFVEDC [E37L] ?
-0.645

Reported abundance fitness for LKKGSQVEALFSYEATQPEDLEFQEGDIILVLHKVNEEWLEGECKGKVGIFPKVFVEDC [S33H] : what is it?
-0.596

Reported abundance fitness for LKKGSQVEALFSYKATQPEDLEFQEGDIILVLSKVNEEWLEGECKGKVGIFPKVFVEDC [E14K] : what is it?
0.217

What abundance fitness value was documented for this variant, LKKGSQVEALFSYEATQPEDLEFQEGDIILVHSKVNEEWLEGECKGKVGIFPKVFVEDC [L32H] ?
0.166

Which abundance fitness is reported for this variant? LRKGSQVEALFSYEATQPEDLEFQEGDIILVLSKVNEEWLEGECKGKVGIFPKVFVEDC [K2R]
0.002

Look up abundance fitness for this variant: LKKGFQVEALFSYEATQPEDLEFQEGDIILVLSKVNEEWLEGECKGKVGIFPKVFVEDC [S5F]
0.011

# query: abundance fitness of entry LKKGSQVEALFSYEATQPEDLEFQEGDIILVLSKVNEEWLEGECKGKVHIFPKVFVEDC [G49H]
-0.893

Name the recorded abundance fitness for LKKGSQVEALFSYEAIQPEDLEFQEGDIILVLSKVNEEWLEGECKGKVGIFPKVFVEDC [T16I] .
-0.926

Reported abundance fitness for LKKGSQVEALFSYEATQPEDLEFQEGDIILVLEKVNEEWLEGECKGKVGIFPKVFVEDC [S33E] : what is it?
-0.786

Endpoint output: abundance fitness of LKKGSQVEALFSYEATQPEDLEFQEGDIILVLSKVNEEWLEGECKGKVGIFTKVFVEDC [P52T] . Value?
-0.341

I would be grateful if you could share the reported abundance fitness for LKKGSQVEALFSYEATQPEDLEFQEGDIILVLSKVNEEWLSGECKGKVGIFPKVFVEDC [E41S] .
-0.28

Looking for the measured abundance fitness of LKKGSQVEALFSYEATQPEDLERQEGDIILVLSKVNEEWLEGECKGKVGIFPKVFVEDC [F23R] , can you help?
-0.223

Which abundance fitness reading was recorded for the variant LKKGSQVEALFSYEATQPEDLEFQEGDIILVLSKVNEEWLEGECKGKVGIFPKVFVEDI [C59I] ?
0.153

Looking for the measured abundance fitness of LKKGSQVEALFSYEATQPEDLLFQEGDIILVLSKVNEEWLEGECKGKVGIFPKVFVEDC [E22L] , can you help?
-0.256

Field request: abundance fitness | item: LKKGTQVEALFSYEATQPEDLEFQEGDIILVLSKVNEEWLEGECKGKVGIFPKVFVEDC [S5T]
-0.037

Return reported abundance fitness; argument: LKKGSQVEALFSYEATQCEDLEFQEGDIILVLSKVNEEWLEGECKGKVGIFPKVFVEDC [P18C]
-0.691

Form field: reported abundance fitness of LKKGSQVEALFSYEATQPEDLEFQEGDIILVLSKVNEEWLEGECKGEVGIFPKVFVEDC [K47E]
-0.822

For LKKGSQVEALFSYEATQPEDLFFQEGDIILVLSKVNEEWLEGECKGKVGIFPKVFVEDC [E22F] , what is its reported abundance fitness?
-0.55

Item LKKFSQVEALFSYEATQPEDLEFQEGDIILVLSKVNEEWLEGECKGKVGIFPKVFVEDC [G4F] has what recorded abundance fitness?
-0.312

Look up abundance fitness: LKKGSQSEALFSYEATQPEDLEFQEGDIILVLSKVNEEWLEGECKGKVGIFPKVFVEDC [V7S]
-0.287

May I ask what abundance fitness has been recorded for LKKGSQVEALFSYEATQKEDLEFQEGDIILVLSKVNEEWLEGECKGKVGIFPKVFVEDC [P18K] ?
-0.558

Recorded abundance fitness of LKKGSQVEALFSYEATTPEDLEFQEGDIILVLSKVNEEWLEGECKGKVGIFPKVFVEDC [Q17T] , please.
0.2

Name the reported abundance fitness value associated with the variant LKKGSQVEALFSYEATQMEDLEFQEGDIILVLSKVNEEWLEGECKGKVGIFPKVFVEDC [P18M]
-0.235

Entry LKKGSQVEALFSYEATQIEDLEFQEGDIILVLSKVNEEWLEGECKGKVGIFPKVFVEDC [P18I] has what abundance fitness?
-0.651
